Data provenance: PubChem BioAssay AID2060512

Tested on: 186277-243-T-J2-PDC complex spheroid viability
TEST: Anticancer human tumor 186277-243-T-J2-PDC patient-derived colon adenocarcinoma cell line growth inhibition [GQUAD]
CONDITION DESCRIPTION: second compound 0.0316 µM; first compound 0.316 µM; active compounds read low
RESULT TYPE: viability, T/C (%)
Number in %, nothing else.

Input Cc1cccc(N(C)C(=O)C2C(O)CCN2c2nc(C)cc(C(F)(F)F)c2C#N)c1 (stereo not given) + Cc1[nH]c2ccc(F)cc2c1-c1nc2c3cccnc3c3ncccc3c2[nH]1 , output reported viability, T/C. 98.2

Input C=CC(=O)N1CCN(c2nc(=O)n(-c3c(C)ccnc3C(C)C)c3nc(-c4c(O)cccc4F)c(F)cc23)C(C)C1 (stereo not given) + Cc1[nH]c2ccc(F)cc2c1-c1nc2c3cccnc3c3ncccc3c2[nH]1 , output reported viability, T/C. 92.5

Input CC(C)(O)C1CCC(Nc2ccc3ncc(-c4cccc(C(F)(F)F)c4)n3n2)CC1 (stereo not given) + Cc1cnc(CNC(=O)c2c(=O)c3ccc(N4CCCN(C)CC4)nc3n3c2sc2ccccc23)cn1 , output reported viability, T/C. 94.4

Input Cc1cccc(N(C)C(=O)C2C(O)CCN2c2nc(C)cc(C(F)(F)F)c2C#N)c1 (stereo not given) + CN(C)c1ccc(Nc2c3ccc(NC(=O)CCN4CCCC4)cc3nc3cc(NC(=O)CCN4CCCC4)ccc23)cc1 , output reported viability, T/C. 115

Input Cn1ncnc1[C@H]1c2n[nH]c(=O)c3cc(F)cc(c23)N[C@@H]1c1ccc(F)cc1 + Cc1cnc(CNC(=O)c2c(=O)c3ccc(N4CCCN(C)CC4)nc3n3c2sc2ccccc23)cn1 , output reported viability, T/C. 78.2

---

Test system: 186277-243-T-J2-PDC complex spheroid viability
TEST: Anticancer human tumor 186277-243-T-J2-PDC cell line growth inhibition [GQUAD];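 also: spheroids exposed to drugs for 7 days; 100% = DMSO vehicle control viability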
CONDITION DESCRIPTION: second compound 0.0316 µM; first compound 0.1 µM; active compounds read low
Quick reference: viability, T/C of the listed items.
Number in %, nothing else.

Look over these answered cases.
# MOLECULE, viability, T/C (%)
records = [
    ("COc1ncnc(C2CC2)c1-c1ncc2cnn(Cc3ccc(-c4nc(C(F)(F)F)cn4C(C)C)cc3)c2n1 + Cc1cnc(CNC(=O)c2c(=O)c3ccc(N4CCCN(C)CC4)nc3n3c2sc2ccccc23)cn1", 73.9),
    ("O=C(NO)c1cnc(N2CCN(S(=O)(=O)c3ccc4ccccc4c3)CC2)nc1 + CN(C)c1ccc(Nc2c3ccc(NC(=O)CCN4CCCC4)cc3nc3cc(NC(=O)CCN4CCCC4)ccc23)cc1", 87),
    ("C=CC(=O)N1CCN(c2nc(=O)n(-c3c(C)ccnc3C(C)C)c3nc(-c4c(O)cccc4F)c(F)cc23)C(C)C1 (centres undefined) + CN(C)c1ccc(Nc2c3ccc(NC(=O)CCN4CCCC4)cc3nc3cc(NC(=O)CCN4CCCC4)ccc23)cc1", 85.5),
]

Input O=c1[nH]cc(F)c(=O)[nH]1 + Cc1[nH]c2ccc(F)cc2c1-c1nc2c3cccnc3c3ncccc3c2[nH]1 , output reported viability, T/C. 99.2

---

System: 186277-243-T-J2-PDC complex spheroid viability
TEST: Anticancer human tumor 186277-243-T-J2-PDC cell line growth inhibition [GQUAD]; active = viability on the fitted dose curve at most 10% of control; inactive = the rest;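 also: spheroids exposed to drugs for 7 days; 100% = DMSO vehicle control viability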
CONDITION DESCRIPTION: second compound 1 µM; first compound 0.316 µM
Choose the fitting class; nothing outside active, inactive is accepted.

Reference set, count: 2
# MOLECULE, LABEL VALUE
measured = [
    ("CC(C)(O)C1CCC(Nc2ccc3ncc(-c4cccc(C(F)(F)F)c4)n3n2)CC1 (stereo unspecified) + CN(C)c1ccc(Nc2c3ccc(NC(=O)CCN4CCCC4)cc3nc3cc(NC(=O)CCN4CCCC4)ccc23)cc1", "inactive"),
    ("O=C(c1cc(Cc2n[nH]c(=O)c3ccccc23)ccc1F)N1CCN(C(=O)C2CC2)CC1 + Cc1cnc(CNC(=O)c2c(=O)c3ccc(N4CCCN(C)CC4)nc3n3c2sc2ccccc23)cn1", "inactive"),
]

Could you please tell me the result logged for COc1ccc([C@@H](O)c2cc(-c3ncnc4cc(N5CCOCC5)ccc34)c(F)cc2Cl)nn1 + Cc1cnc(CNC(=O)c2c(=O)c3ccc(N4CCCN(C)CC4)nc3n3c2sc2ccccc23)cn1 in this assay? inactive

Could you please tell me the result logged for CCCS(=O)(=O)Nc1ccc(F)c(C(=O)c2c[nH]c3ncc(-c4ccc(Cl)cc4)cc23)c1F + Cc1cnc(CNC(=O)c2c(=O)c3ccc(N4CCCN(C)CC4)nc3n3c2sc2ccccc23)cn1 in this assay? inactive

Could you please tell me the result logged for CC[C@@]1(O)C(=O)OCc2c1cc1n(c2=O)Cc2cc3c(CN(C)C)c(O)ccc3nc2-1 + CN(C)c1ccc(Nc2c3ccc(NC(=O)CCN4CCCC4)cc3nc3cc(NC(=O)CCN4CCCC4)ccc23)cc1 in this assay? inactive

Could you please tell me the result logged for CC(C)(O)C1CCC(Nc2ccc3ncc(-c4cccc(C(F)(F)F)c4)n3n2)CC1 (stereo unspecified) + Cc1cnc(CNC(=O)c2c(=O)c3ccc(N4CCCN(C)CC4)nc3n3c2sc2ccccc23)cn1 in this assay? inactive

Could you please tell me the result logged for COc1ncnc(C2CC2)c1-c1ncc2cnn(Cc3ccc(-c4nc(C(F)(F)F)cn4C(C)C)cc3)c2n1 + Cc1cnc(CNC(=O)c2c(=O)c3ccc(N4CCCN(C)CC4)nc3n3c2sc2ccccc23)cn1 in this assay? inactive

Could you please tell me the result logged for COc1cccc2c1C(=O)c1c(O)c3c(c(O)c1C2=O)CC(O)(C(=O)CO)CC3OC1CC(N)C(O)C(C)O1 (stereo unspecified) + CN(C)c1ccc(Nc2c3ccc(NC(=O)CCN4CCCC4)cc3nc3cc(NC(=O)CCN4CCCC4)ccc23)cc1 in this assay? inactive

Could you please tell me the result logged for C=CCn1c(=O)c2cnc(Nc3ccc(N4CCN(C)CC4)cc3)nc2n1-c1cccc(C(C)(C)O)n1 + Cc1cnc(CNC(=O)c2c(=O)c3ccc(N4CCCN(C)CC4)nc3n3c2sc2ccccc23)cn1 in this assay? inactive

Could you please tell me the result logged for CCc1c2c(nc3ccc(O)cc13)-c1cc3c(c(=O)n1C2)COC(=O)[C@]3(O)CC + Cc1[nH]c2ccc(F)cc2c1-c1nc2c3cccnc3c3ncccc3c2[nH]1 in this assay? inactive

Could you please tell me the result logged for O=C(c1cc(Cc2n[nH]c(=O)c3ccccc23)ccc1F)N1CCN(C(=O)C2CC2)CC1 + Cc1[nH]c2ccc(F)cc2c1-c1nc2c3cccnc3c3ncccc3c2[nH]1 in this assay? inactive

Could you please tell me the result logged for CCc1c2c(nc3ccc(O)cc13)-c1cc3c(c(=O)n1C2)COC(=O)[C@]3(O)CC + Cc1cnc(CNC(=O)c2c(=O)c3ccc(N4CCCN(C)CC4)nc3n3c2sc2ccccc23)cn1 in this assay? active

Could you please tell me the result logged for CC1COCCN1c1cc(C2(O)CC3CCC(C2)O3)c2cnn(-c3ccn[nH]3)c2n1 (stereo unspecified) + Cc1cnc(CNC(=O)c2c(=O)c3ccc(N4CCCN(C)CC4)nc3n3c2sc2ccccc23)cn1 in this assay? inactive

Could you please tell me the result logged for Cn1ncnc1[C@H]1c2n[nH]c(=O)c3cc(F)cc(c23)N[C@@H]1c1ccc(F)cc1 + Cc1cnc(CNC(=O)c2c(=O)c3ccc(N4CCCN(C)CC4)nc3n3c2sc2ccccc23)cn1 in this assay? inactive

Could you please tell me the result logged for COc1cccc2c1C(=O)c1c(O)c3c(c(O)c1C2=O)CC(O)(C(=O)CO)CC3OC1CC(N)C(O)C(C)O1 (stereo unspecified) + Cc1[nH]c2ccc(F)cc2c1-c1nc2c3cccnc3c3ncccc3c2[nH]1 in this assay? inactive

Could you please tell me the result logged for Cn1ncnc1[C@H]1c2n[nH]c(=O)c3cc(F)cc(c23)N[C@@H]1c1ccc(F)cc1 + Cc1[nH]c2ccc(F)cc2c1-c1nc2c3cccnc3c3ncccc3c2[nH]1 in this assay? inactive

Could you please tell me the result logged for CC(C)n1c(=O)n(C)c2cnc3cc(F)c(-c4ccc(OCCCN5CCCCC5)nc4)cc3c21 + CN(C)c1ccc(Nc2c3ccc(NC(=O)CCN4CCCC4)cc3nc3cc(NC(=O)CCN4CCCC4)ccc23)cc1 in this assay? inactive

---

Quick reference: viability, T/C of the listed items.
Test system: 186277-243-T-J2-PDC complex spheroid viability
TEST: Anticancer human tumor 186277-243-T-J2-PDC cell line growth inhibition [GQUAD];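 also: spheroids exposed to drugs for 7 days; 100% = DMSO vehicle control viability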
CONDITION DESCRIPTION: second compound 0.316 µM; first compound 1 µM; active compounds read low
Number in %, nothing else.

Look over these answered cases.
# COMPOUND, viability, T/C [%]
measured = [
    ("COc1cc(C2c3cc4c(cc3C(OC3OC5COC(C)OC5C(O)C3O)C3COC(=O)C23)OCO4)cc(OC)c1O (stereo not drawn) + CN(C)c1ccc(Nc2c3ccc(NC(=O)CCN4CCCC4)cc3nc3cc(NC(=O)CCN4CCCC4)ccc23)cc1", 42.8),
    ("Cc1cccc(N(C)C(=O)C2C(O)CCN2c2nc(C)cc(C(F)(F)F)c2C#N)c1 (stereo not drawn) + Cc1[nH]c2ccc(F)cc2c1-c1nc2c3cccnc3c3ncccc3c2[nH]1", 98),
]

Please find the next compound below.
Input CCCS(=O)(=O)Nc1ccc(F)c(C(=O)c2c[nH]c3ncc(-c4ccc(Cl)cc4)cc23)c1F + Cc1cnc(CNC(=O)c2c(=O)c3ccc(N4CCCN(C)CC4)nc3n3c2sc2ccccc23)cn1 , output reported viability, T/C. 59
